tested on: Pseudomonas aeruginosa; assay: Antibacterial activity against Pseudomonas aeruginosa 14-9 after 18 to 24 hrs; format: functional
MIC values by entry
Field: numeric (µg/mL). Do not append units.

Use the examples below as a reference point.
Molecule: Cc1ccc(CO/N=C2\CN(c3nc4c(cc3F)c(=O)c(C(=O)O)cn4[C@@H]3C[C@@H]3F)CC2CN)cc1 (stereo partly drawn)
Target Or Test System: Pseudomonas aeruginosa
Measured Attribute: MIC
Number: 8

Molecule: NC1CN(c2nc3c(cc2F)c(=O)c(C(=O)O)cn3[C@@H]2C[C@@H]2F)C/C1=N\OCc1ccccc1 (stereo partly drawn)
Target Or Test System: Pseudomonas aeruginosa
Measured Attribute: MIC
Number: 32

// next item, MIC requested
Pseudomonas aeruginosa MIC of NCC1CN(c2nc3c(cc2F)c(=O)c(C(=O)O)cn3[C@@H]2C[C@@H]2F)C/C1=N\OCc1ccc(OC(F)(F)F)cc1 (stereo partly drawn) is 16

Reference for the values: ChEMBL document CHEMBL3632558
